System: HCC1954-LR cells
Experiment: Proliferation assay (acid phosphatase), Lapatinib-resistant HCC1954
Assay type: cell-based
Conditions: Homo sapiens, HCC1954, 120 h, read-out: concentration that inhibits 50% of proliferation (IC50), HCC1954-LR, five days
Assay Metric: IC50

input: Quote IC50 reported for CS(=O)(=O)CCNCc1ccc(-c2ccc3ncnc(Nc4ccc(OCc5cccc(F)c5)c(Cl)c4)c3c2)o1 please.
output: ~5 µM
